Exercise: state measured GI50 for each of the molecules provided.
- Test system: HOP-62 NSCLC
- run description: NCI tumour cell line growth inhibition, 48 h

Solved entries:
COc1cccc(C2C3=C(COC3=O)N(CCO)c3cc4c(cc32)OCO4)c1 (centres undefined) ... 0.598 µM
COc1ccc(Nc2nc3cc(N)cc(N)c3nc2-c2ccccc2)cc1OC ... 34.8 µM
Cc1ccc(NCCN(C)C)c2c(=O)c3ccccc3sc12 ... 1.55 µM

Could you now look at the following molecule, please?
*Q* Lab note: record GI50 of `NC(=S)N=Nc1c(O)c2ccccc2c2ccccc12` tested on HOP-62 NSCLC.
*A* 2.31 µM
